Recorded values, source ChEMBL document CHEMBL2046395.

Tested on: L6
Experiment: Cytotoxicity against rat L6 cells
Format: cell-based
Reported IC50 values for a set of compounds

Worked cases, IC50 given:
Lookup: Query IC50 on L6 for COc1nn(Cc2ccccc2Cn2nc(OC)c3cc([N+](=O)[O-])ccc32)c2ccc([N+](=O)[O-])cc12
Found: > 204 µM

Lookup: Query IC50 on L6 for CN1C(=O)C2=Cc3ccccc3CCN2c2ccc([N+](=O)[O-])cc21
Found: > 311 µM

Lookup: Query IC50 on L6 for CCOc1ccc([N+](=O)[O-])cc1C(=O)NN(c1ccccc1)c1ccccc1
Found: 185 µM

---
Lookup: Query IC50 on L6 for O=[N+]([O-])c1ccc2c(c1)c(OCc1ccccc1)nn2Cc1ccccc1-c1ccccc1Cn1nc(OCc2ccccc2)c2cc([N+](=O)[O-])ccc21
Found: > 139 µM

Lookup: Query IC50 on L6 for O=[N+]([O-])c1ccc2c(c1)CC([O-])=N[N+]21CCCCC1
Found: 324 µM

Lookup: Query IC50 on L6 for CN(C)CCCOc1nn(Cc2ccccc2F)c2ccc([N+](=O)[O-])cc12
Found: 32 µM

Lookup: Query IC50 on L6 for CCCCn1c2ccc([N+](=O)[O-])cc2c(=O)n1Cc1ccccc1
Found: 46.7 µM

Lookup: Query IC50 on L6 for CN1C(=O)C2Cc3ccccc3CCN2c2ccc([N+](=O)[O-])cc21 (stereo not given)
Found: 15.1 µM
